- System: HTT mRNA
- METHOD: RT-qPCR splicing assay, HTT mRNA canonical (CJ) and alternative (AJ) junction
- Assay type: cell-based, human
- TEST CONDITIONS: Homo sapiens, HTT canonical junction mRNA, RT-qPCR; read-out: HTT CJ (decrease in CJ mRNA levels, IC50)
MEASURED PARAMETER: IC50

COMPOUND | REPORTED VALUE
Cc1nc2c(F)c(O)c(-c3ccc4nc(N5CCC(NCC6CC6)C5)ccc4n3)cc2o1 (stereo not shown) | < 100 nM
CC(C)(C)NC1CCN(c2ccc3nc(-c4cc5cnccc5cc4O)ccc3n2)C1 (stereo not shown) | > 10000 nM
Cn1cc2cc(-c3ccc4c(F)c(C5CCNCC5)ccc4n3)c(O)cc2n1 | 1000 to 10000 nM

Would you mind giving IC50 for every compound in the list below?
1. Cc1c(O)c(-c2ncc3nc(C4CCNC4)ccc3n2)cc2cn(C)nc12 (stereo not shown)
2. Cn1cc2cc(-c3ccc4nc(C5CCNCC5)ccc4n3)cc(F)c2n1
3. Cc1c(O)c(-c2ncc3cc(N4C[C@@H](C)N[C@H](C)C4)ccc3n2)cc2cn(C)nc12 (single isomer, unassigned)
4. Cn1cc2cc(-c3ncc4nc(N5CC[C@@H](N)C5)ccc4n3)c(O)c(F)c2n1 (single isomer, unassigned)

1: 1000 to 10000 nM; 2: 1000 to 10000 nM; 3: 100 to 1000 nM; 4: < 100 nM

---

- Tested on: HTT mRNA
- METHOD: RT-qPCR splicing assay, HTT mRNA canonical (CJ) and alternative (AJ) junction
- Format: cell-based, human
- TEST CONDITIONS: Homo sapiens, HTT canonical junction mRNA, RT-qPCR; read-out: HTT CJ (decrease in CJ mRNA levels, IC50)
MEASURED PARAMETER: IC50

STRUCTURE NOTATION | REPORTED VALUE
CNC(=O)c1nc(-c2cc3cn(C)nc3cc2O)nc2ccc(N3CCC(N(C)C)CC3)cc12 | 100 to 1000 nM
Cn1cc2cc(-c3ccc4nc(N5CC6(CNC6)C5)ccc4n3)c(O)cc2n1 | < 100 nM
CNC(=O)c1nc(-c2cc3cn(C)nc3c(F)c2O)nc2ccc(N3CCN[C@@H](C)C3)cc12 | 100 to 1000 nM

Let us examine a further case.
May I ask what IC50 has been recorded for Cc1nc2cc(O)c(-c3ccc4nc(N5CC[C@H](NC6CC6)C5)ncc4n3)cc2o1 ? 100 to 1000 nM

---

Record form. Attribute: IC50. Fill in for each entry.
- Test system: HTT mRNA
- METHOD: RT-qPCR splicing assay, HTT mRNA canonical (CJ) and alternative (AJ) junction
- Type: cell-based, human
- TEST CONDITIONS: Homo sapiens, HTT canonical junction mRNA, RT-qPCR; read-out: HTT CJ (decrease in CJ mRNA levels, IC50)

Example entries and their recorded answers appear below.
COMPOUND | REPORTED VALUE
Cn1cc2cc(-c3ccc4cc(C5CCNCC5)c(F)cc4n3)c(O)cc2n1 [Compound 144] | > 10000 nM
C[C@@H]1CN(c2ccc3nc(-c4cc5cn(C)nc5c(F)c4O)nc(C#N)c3c2)C[C@H](C)N1 [Compound 707] | 100 to 1000 nM
Cn1cc2cc(-c3ccc4nc(N5CC[C@H](NC6CC(F)(F)C6)C5)ccc4n3)c(O)cc2n1 [Compound 384] | 1000 to 10000 nM

Each of the following entries comes with a recorded value; kindly state IC50 for each.
1. Cc1nc2cc(-c3ccc4nc(N5CCC(NC(C)(C)C)C5)ccc4n3)c(O)cc2n1C (centres unmarked) [Compound 340]
2. CN(c1ccc2nc(-c3cc4cn(C)nc4cc3O)ccc2n1)C1CC(C)(C)N(C)C(C)(C)C1 [Compound 130]
3. CC(C)(C)NC1CCN(c2ccc3nc(-c4cc5oc(C6CC6)nc5cc4O)ccc3n2)C1 (centres unmarked) [Compound 333]
4. C[C@H]1C[C@H](c2ccc3nc(-c4cc5cn(C)nc5cc4O)ccc3n2)CCN1 [Compound 139]

["100 to 1000 nM", "> 10000 nM", "100 to 1000 nM", "< 100 nM"]

Form field: reported IC50 of Cc1nc2cc(O)c(-c3ccc4nc(N5CCC(NCC6CC6)C5)ccc4n3)cc2o1 (single isomer, unassigned) [Compound 291] 100 to 1000 nM

---

- Tested on: HTT
- METHOD: HiBiT protein abundance assay, HTT (K562 HiBiT knock-in)
- Assay type: cell-based, human
- TEST CONDITIONS: HiBiT knock-in K562 cells, 24 hours, top dose 10 μM
pIC50: −log10 of the molar value.
MEASURED PARAMETER: pIC50

Completed entries (count: 3):
COMPOUND | TARGET | pIC50
Cc1nc2cc(O)c(-c3ccc4nc(N5CC[C@@H](N[C@H]6C[C@H](F)C6)C5)ccc4n3)cc2o1 (single isomer, unassigned) [Compound 348] | HTT | > 7.00
Cc1c(O)c(-c2ccc3nc(N4CC[C@@H](NC5CCC5)C4)ccc3n2)cc2cn(C)nc12 (single isomer, unassigned) [Compound 289] | HTT | > 7.00
Cn1cc2cc(-c3ccc4nc(N5CC[C@H](NCC6CC6)C5)ccc4n3)c(O)c(F)c2n1 (single isomer, unassigned) [Compound 304] | HTT | > 7.00

For each of the compounds below, note its pIC50.
1. Cc1nc2c(F)c(O)c(-c3ccc4nc(N5CCC(NC6(C)CC6)C5)ccc4n3)cc2o1 (stereo not drawn) [Compound 325]
2. Cc1c(O)c(-c2ncc3cc(N4C[C@H](C)N[C@@H](C)C4)ccc3n2)cc2cn(C)nc12 [Compound 660]
3. Cc1nc2cc(O)c(-c3ccc4cc(N5CC[C@@H](NC(C)(C)C)C5)ncc4n3)cc2o1 [Compound 417]
4. Cc1cc2nc(-c3ccc4nc(N5CCC(NC(C)(C)C)C5)ccc4n3)cn2c(C)n1 (stereo not drawn) [Compound 344]
5. Cc1c(O)c(-c2ccc3nc(N4CC[C@@H](NCC5CC5)C4)ccc3n2)cc2cn(C)nc12 (single isomer, unassigned) [Compound 322]
6. Cn1cc2cc(-c3ncc4nc(C5CCNCC5)ccc4n3)c(O)cc2n1 [Compound 107]
7. Cn1cc2cc(-c3ccc4nc(N5CC[C@@H](NC6(C)CC6)C5)ccc4n3)c(O)c(F)c2n1 [Compound 223]
8. CNC(=O)c1nc(-c2cc3cn(C)nc3c(C)c2O)nc2ccc(N3CCNCC3)nc12 [Compound 533]

> 7.00
6.00 to 7.00
6.00 to 7.00
5.00 to 6.00
> 7.00
6.00 to 7.00
> 7.00
5.00 to 6.00

---

- Test system: K562 cells
- METHOD: Cell Titer Glo 2.0 cell viability (toxicity) assay, K562
- TEST CONDITIONS: 500 cells/well, 72 hours
MEASURED PARAMETER: Effect of Exemplary Compounds on Cell Viability, K562

STRUCTURE NOTATION | REPORTED VALUE
Cc1nc2c(C)c(O)c(-c3ccc4nc(N5CC[C@H](NC(C)(C)C)C5)ccc4n3)cc2o1 | A (A represents <100 nM)
Cc1nc2c(C)c(O)c(-c3ccc4nc(N5CC[C@H](NC(C)C)C5)ncc4n3)cc2o1 | A (A represents <100 nM)
C[C@H]1CN(c2ccc3nc(-c4cc5cn(C)nc5c(F)c4O)ncc3c2)C[C@H](C)N1 | A (A represents <100 nM)
Cc1nc2c(F)c(O)c(-c3ccc4nc(N5CC[C@H](N[C@H]6C[C@@H](F)C6)C5)ccc4n3)cc2o1 | A (A represents <100 nM)

---

- Tested on: MYB mRNA
- METHOD: RT-qPCR splicing assay, MYB mRNA canonical (CJ) and alternative (AJ) junction
- Assay type: cell-based, human
- TEST CONDITIONS: Homo sapiens, RT-qPCR, MYB canonical junction mRNA decrease; read-out: MYB CJ (decrease in canonical junction mRNA, IC50)
What IC50 was measured for each of the following?

Here is how some molecules turned out for IC50.
MOLECULE | IC50
Cc1cn2cc(-c3ncc4cc(N5C[C@H](C)N[C@@H](C)C5)ccc4n3)cc(F)c2n1 | < 0.1 µM
Cn1cc2cc(-c3ncc4cc(N5CCC(N6CCC6)CC5)ccc4n3)cc(F)c2n1 | 0.1 to 1 µM
C[C@H]1CN(c2cc(F)c3nc(-c4cc(F)c5nn(C)cc5c4)ccc3c2)C[C@H](C)N1 (single isomer, unassigned) | < 0.1 µM
CCc1cn2cc(-c3ncc4cc(N5C[C@H](C)N[C@@H](C)C5)ccc4n3)cc(F)c2n1 | 1 to 10 µM
C[C@@H]1CN(c2cc(F)c3nc(-c4cc(F)c5nn(C)cc5c4)ccc3c2)C[C@H](C)N1 | 0.1 to 1 µM
CCc1nc2cc(O)c(-c3ccc4nc(N5CC[C@H](NC(C)(C)C)C5)ccc4n3)cc2o1 (single isomer, unassigned) | 1 to 10 µM
Cc1nc(-c2cc(F)c3nn(C)cc3c2)nc2ccc(N3CCC(N4CCC4)CC3)cc12 | 1 to 10 µM
C[C@H]1CN(c2ccc3nc(-c4cc(F)c5nn(C)c(F)c5c4)ncc3c2)C[C@H](C)N1 | 1 to 10 µM

Value sought for every listed molecule: IC50.
1. C[C@H]1CN(c2cc(F)c3nc(-c4cc5cn(C)nc5cc4O)ccc3c2)C[C@H](C)N1 (single isomer, unassigned)
2. C[C@H]1CN(c2cc(F)c3nc(-c4cc(F)c5nn(C)cc5c4)ccc3c2)CCN1 (single isomer, unassigned)
3. C[C@H]1CN(c2ccc3nc(-c4cc(F)c5nn(C)cc5c4)ncc3c2)C[C@H](C)N1
4. Cn1cc2cc(-c3ncc4cc(N5CCC(N6CCC6)CC5)ccc4n3)c(O)cc2n1
5. C[C@@H]1CN(c2ccc3nc(-c4cc5cn(C)nc5cc4O)ncc3c2)CC2(CC2)N1 (single isomer, unassigned)
6. Cn1cc2cc(-c3ncc4cc(N5CC[C@H](NC(C)(C)C)C5)ccc4n3)c(O)c(F)c2n1

1: < 0.1 µM; 2: < 0.1 µM; 3: 0.1 to 1 µM; 4: 0.1 to 1 µM; 5: 0.1 to 1 µM; 6: < 0.1 µM
